Where do these numbers come from? They come from PubChem BioAssay (NCATS).

assay: qHTS of pediatric cancer cell lines to identify multiple opportunities for drug repurposing: Primary screen for U-2 OS cells (AID 1347096); conditions: U-2 OS viability, CellTiter-Glo luminescence, 48 h; series mostly up to 46 µM; further: nearly all actives have a fitted effect of over 50% in size
Results filed as inconclusive are left out. Activity calls are given as the source filed them. The call rests on the fitted dose curve; in most records, active means well fitted cell-killing curve with a large enough effect; inconclusive means small, poorly fitted or top-dose-only effect; inactive means flat fitted curve, though single readings scatter.
Would you mind answering with one of these outcomes? 1 (yes) (active), 0 (no) (inactive)

Cc1ccc(NC(=O)Nc2cc(C(F)(F)F)ccc2F)cc1Nc1ccc2c(c1)NC(=O)C2=Cc1ccc[nH]1: 1 (yes)
CN1CCN2c3ncccc3Cc3ccccc3C2C1 (centres undefined): 0 (no)
Oc1ccc(C=Cc2cc(O)cc(O)c2)cc1: 0 (no)
O=c1[nH]c(=O)n([C@H]2C[C@@H](O)[C@@H](CO)O2)cc1I: 0 (no)
COc1ccc2c(c1)c(C1=C(c3c[nH]c4ccccc34)C(=O)NC1=O)cn2CCCN(C)C: 0 (no)

Query: recorded result category for Cc1csc(-c2nnc(Nc3ccc(Oc4ncccc4-c4ccnc(N)n4)cc3)c3ccccc23)c1 in this test
0 (no)

Query: recorded result category for COc1ccc(CCN(C)CCCOc2ccc(S(=O)(=O)c3[nH]c4ccccc4c3C(C)C)cc2)cc1OC in this test
0 (no)
